pIC50: −log10 of the molar value.
pIC50 for MAGL (Homo sapiens, UniProt Q99685), merged from several publications.

Study these solved cases before continuing.
1. CC(C)(COc1cc(C(F)(F)F)ccc1CN1CCN(C(=O)OC(C(F)(F)F)C(F)(F)F)CC1)C(=O)O	> 7.30
2. CC(=O)Nc1ccn(C(=O)N2CCC3(CCCN3Cc3ccc(Cl)c(C4CC4)c3)CC2)n1	≥ 7.00
3. O=C(c1cccc(-c2cccc(F)c2)c1)N1CCC(C2CN(C(=O)c3nccs3)C2)CC1	> 8.30
4. CS(=O)(=O)Nc1ccn(C(=O)N2CCN(Cc3ccc(C(F)(F)F)cc3N3CCN(C(N)=O)CC3)CC2)n1	≥ 7.00
5. O=C(c1nccs1)N1CCN(C2CN(C(=O)c3cccc4c3ccn4-c3ccc(F)cc3)C2)CC1	> 8.30

Let me check: O=C(c1ccc2c(c1)[nH]c(=O)n2-c1ccccc1)N1CC(C2CCN(C(=O)c3nccs3)CC2)C1 , system MAGL (Homo sapiens, UniProt Q99685), measured pIC50 is 7.11

Reading of pIC50 for Cc1sc(C(=O)N2CC(N3CCN(C(=O)c4nccs4)CC3)C2)cc1-c1ccc(F)cc1 with MAGL (Homo sapiens, UniProt Q99685): 7.96

Measured pIC50 (MAGL (Homo sapiens, UniProt Q99685)), entry O=C1N[C@H](CCC(=O)N2CC(c3ccc(-c4ccc(Cl)cc4F)cn3)C2)CO1 : 8.52

###

Across several publications, the following IC50 results were reported for MAGL (Homo sapiens).
readout: IC50 (nM)

Please review the entries below; each comes with its answer.
1) O=C1CO[C@@H]2CCN(C(=O)N3CC(c4ccc(-c5ccc(F)cc5F)cc4)C3)C[C@H]2N1 (single isomer, unassigned)	93
2) COc1cccc(C(=O)N2CCN3C[C@@](O)(c4ccc(C(F)(F)F)cn4)CC[C@@H]3C2)c1Cl	97.2
3) O=C1c2ccccc2-c2ccc(C(=O)N3CC(N4CCN(C(=O)c5nccs5)CC4)C3)cc21	65
4) O=C(c1cccc(OC(F)F)c1Cl)N1CCN2C[C@@H](c3ccc(F)c(Cl)c3)OC[C@@H]2C1	131

(a) CS(=O)(=O)c1cccc(-c2ccc(C(=O)N3CC(N4CCN(C(=O)c5nccs5)CC4)C3)cc2)c1
(b) O=C(c1ccc2nc(-c3ccccc3)sc2c1)N1CC(N[C@H]2CCN(C(=O)c3nccs3)C2)C1
Task: Recorded IC50 values differ for a and b ; which one is higher? Select an item and report its label.
Output: b
(b: 145 nM, a: 92 nM)

###

Compiled notes: published IC50 values involving MAGL (Homo sapiens, UniProt Q99685).

In the examples that follow, each entry is paired with its recorded IC50.
1. O=C(c1ccc2c(ccn2-c2ccc(F)cc2)c1)N1CC(C2CCN(C(=O)c3cscn3)CC2)C1	< 5 nM
2. O=C(O)c1nn(C(=O)N2CC3CN(Cc4cccc(Oc5ccc(Cl)cc5)c4)CC3C2)cc1Cl (stereo not drawn)	100 to 1000 nM

The molecule listed as O=C(c1nccs1)N1CC[C@H](NC2CN(C(=O)c3sc4cc(-c5cccc(C(F)(F)F)c5)ccc4c3Cl)C2)C1 has a reported IC50 of < 5 nM
